Test: reversal of MRP1-mediated doxorubicin resistance, pilot screen, H69AR cells, doxorubicin co-treatment (AID 601)
Settings: H69AR cells + 2 uM doxorubicin, CellTiter-Glo, 72 h; at 10 µM; stronger effect = higher value
Would you mind telling me the reported differential viability (reversal) of each entry?
Numbers only, in %.

Consider the worked cases shown below.
>>> reportedresult("COc1cccc(C(=O)CSc2nnc(COc3cccc4cccnc34)o2)c1")
-2.74
>>> reportedresult("CC(C)(C)C(=O)OCC1OC(n2cnc(C(N)=O)n2)C(O)C1O (configuration not stated)")
1.56
>>> reportedresult("O=C(NC(C(=O)c1ccccc1)N1CCOCC1)c1cccs1 (configuration not stated)")
15

Hi there! I need differential viability (reversal) for each item below, if you can.
1. Cc1ccc(S(=O)(=O)NCCNC(=O)C2CCCNC2=O)cc1 (configuration not stated)
2. NC(=O)C1CCN(c2nc(-c3ccccc3)nc3ccccc23)CC1
3. O=C(Nc1ccccc1-c1nc2ccccc2o1)c1ccc2c(c1)OCCO2
4. O=C(c1ccco1)N1CCN(CC2CC3C=CC2C3)CC1 (configuration not stated)
5. c1ccc(Cn2nnnc2CN2CCCC2)cc1
6. COc1ccc(C(O)C(CN2CCOCC2)c2ccccc2)cc1F (configuration not stated)
7. Nc1ccc(S(=O)(=O)Nc2ccccn2)cc1

Ans:
1. 12
2. -2.88
3. -12.7
4. 5.7
5. 2.88
6. 4.89
7. 10.3

Give differential viability (reversal) for each of the items listed below.
1. COc1ccccc1-c1cc(C(=O)Nc2cc(C)nn2-c2ccccc2)no1
2. CC(C)(C)NS(=O)(=O)c1ccc(CCC(=O)O)cc1
3. COc1ccc(CC(=O)NCc2cccs2)cc1
4. CCOC(=O)C1/C(=N\O)CC(C)(O)C(C(=O)OCC)C1c1ccc(N(C)C)cc1 (configuration not stated)

Ans:
[-33.6, -5.2, -17.3, -13.3]

Hi there! I need differential viability (reversal) for each item below, if you can.
1. CCCc1cc(=O)[nH]c(Nc2ccc(OC)c(Cl)c2)n1
2. CCOC(=O)c1ccc(Oc2nc(NC)nc(OC)n2)cc1
3. CCOc1ccccc1N1C(=O)c2ccc(C(=O)Nc3cccnc3)cc2C1=O

Ans:
[-7.59, 5.53, 2.08]

The reported numbers originate from PubChem BioAssay.
